Molecular target: T1, Myo5, Q04439
T1 sequence (Q04439 1072-1160, looked up): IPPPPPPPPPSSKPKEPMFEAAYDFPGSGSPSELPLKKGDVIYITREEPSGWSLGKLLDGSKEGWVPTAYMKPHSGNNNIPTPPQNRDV
Test: SPOT array
Conditions: median of control spots 471
List of SPOT intensity values.

SSTPTTPERPKRKSG 0
MKRSRPSRSIPYTTP 2
SLSRRRFSLPSMPNV 4
HPRFVSPRIPSRIVK 0
LSKRLPLRFPEHTSS 0
ISRRRLPVIMHRLKM 2

Below: the item to evaluate.
// field: SPOT intensity; key: RRLRDKYKLPIVDAD ; value = 0

Source listed as paper PMC2756588.
